Origin of the recorded values: PubChem BioAssay AID1996

Conditions: buffer; pH 7.4; 200.0 µM
Entry flag: criterion met if solubility kinetic reaches 10 µg/mL; criterion not met if it does not.

[[record]]
compound = "O=S(=O)(Nc1cccc2ccccc12)c1cccc2nonc12"
category_label = "criterion met"

[[record]]
compound = "CC(C)NC(=O)[C@@H]1CSC2c3ccccc3C(=O)N21 (stereo not given in full)"
category_label = "criterion met"

[[record]]
compound = "CC(C)(C)Sc1ccc([N+](=O)[O-])cc1C(=O)Nc1ccncc1"
category_label = "criterion met"

[[record]]
compound = "CC1=CC(C)(C)N2C(=O)C(=Nc3ccc(O)cc3)c3cccc1c32"
category_label = "criterion not met"

[[record]]
compound = "COc1ccc(C(=O)/C=C/Nc2ccc(S(N)(=O)=O)cc2)cc1OC"
category_label = "criterion not met"

[[record]]
compound = "CCC(=O)c1ccc(OCC(=O)OCC(=O)Nc2ccc3c(c2)OCCO3)cc1"
category_label = "criterion met"

[[record]]
compound = "CCc1c(C)c(C#N)c2nc3ccccc3n2c1NC"
category_label = "criterion not met"

[[record]]
compound = "O=C(NC1CCCC1)c1cc(-c2ccccc2Cl)on1"
category_label = "criterion not met"


Switching to the query record.
Inquiry: Quick check: does CC(=O)Nc1cc(-c2nc3ccccc3o2)ccc1Cl have solubility kinetic greater than or equal to 10 µg/mL?
Reply text: criterion not met
